System: Nuclear hormone receptor DAF-12 (Strongyloides stercoralis)
assay remarks: S. stercoralis DAF-12 nuclear receptor activators, primary screen, cell-based, luminescence, HEK293, GRIP1 co-expression, lit1-tk-luc (AID 652126)
measurement context: HEK293 ssDAF-12/GRIP1 lit1-tk-luc reporter, at 6.8 µM, % of 3 µM dafachronic acid response
In all, about 370,000 compounds went through this assay and about 3,700 (1%) were called active.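 The calls were made as follows: active = activation above the mean over all tested compounds plus 3 SD (cut at about 0.9% in these data); inactive = the rest.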 Only a selection was taken, and actives are over-represented in it overall.
Classes used: yes (active), no (inactive)

compound	assigned category
CN(C)Cc1cn(-c2ccc(-c3noc4c3C(=O)N(CC(=O)N3CCOCC3)CC4)cc2)nn1	no
O=S1(=O)c2ccc(Br)cc2OC[C@H](Cc2ccccc2)N1Cc1cn(Cc2ccccc2)nn1	no
CCOC(=O)c1cccc(NC(=O)CN(C)S(=O)(=O)c2ccc(-c3cocn3)s2)c1	no
Cc1ccc(S(=O)(=O)N2[C@@H](c3cccc(Cl)c3)C(C(=O)O)=CC[C@H]2c2ccc(Cl)c(Cl)c2)cc1	no
Cc1cccc(NC(=O)c2cccc(C(=O)Nc3cccc(C)c3C)n2)c1C	no
O=C(CN1CCSCC1)N/N=C/c1ccc(F)cc1F	no
O=C(CSc1nc2ccccc2s1)NN=Cc1ccc(O)cc1O	no
COc1cccc(C(O)Cc2nc3ccccc3n2C)c1OC (configuration not stated)	no
CC(C)Cc1cc(C(=O)NCCc2ccccc2)no1	yes
O=C(CNS(=O)(=O)c1ccccc1F)N1CCN(c2ccccn2)CC1	no
O=C(NCc1cccs1)C1CCCN(S(=O)(=O)c2ccc([N+](=O)[O-])cc2)C1 (configuration not stated)	no
CN(CCc1ccccc1)C(=O)Cn1nc(-c2ccccc2)ccc1=O	no
COC(=O)[C@]12C[C@H](CC(=O)NCc3ccccc3)C(=O)N(CCC3=CCCCC3)C1=C[C@H](C(C)C)O[C@@H]2C1CC1	no
c1cncc(CNc2ccnc(-c3ccc4c(c3)OCO4)n2)c1	no
Clc1ccc(-n2c(COc3ccccc3)nnc2SCc2nc3ccccc3[nH]2)cc1	no
CC(C)(C)c1cnnn1-c1ccc([N+](=O)[O-])cc1	no
Cc1ccc(-c2nnc(SCC(=O)Nc3ccc(Oc4ccccc4)cc3)n2Cc2ccco2)cc1	no
COc1ccc(C2CC=C(C(=O)O)C(c3ccccc3F)N2S(=O)(=O)c2ccc(C)cc2)cc1OC (configuration not stated)	yes
CC(NC(=O)c1ccccc1C(=O)O)c1ccc(-n2ccnc2)cc1 (configuration not stated)	yes
CCOC(=O)C1(Cc2ccccc2)CCN(Cc2cn(C(C)=O)c3ccccc23)CC1	no
CC(c1ccc(N)cc1)c1cn(C)c2ccccc12 (configuration not stated)	no
C=C(C)C#CC(Cc1ccccc1)N(CC1CC1)/C(N)=N/C(=O)OCc1ccccc1 (configuration not stated)	no
COc1ccc(N2CCN(CCNS(=O)(=O)c3ccc(Cl)s3)CC2)cc1	no
C/C=C/C(=O)OCc1csc(CC(=O)Nc2ccccc2C)n1	no
Cc1ccccc1C(=O)Nc1ccccc1Sc1ccccc1	no
Cc1ccc(S(=O)(=O)N2[C@@H](c3ccccc3F)C(C(=O)O)=CC[C@H]2c2ccc(Cl)cc2)cc1	no
COc1ccc(CN2C/C(=C/c3ccccc3)N3C(=O)C[C@@H](c4ccccc4)N=C23)c(OC)c1	no
Cc1ccc(-c2nc(C3CCCN(S(=O)(=O)c4ccc(Br)s4)C3)no2)cc1 (configuration not stated)	no
O=S1(=O)c2ccc(Br)cc2OC[C@@H](Cc2ccccc2)N1Cc1cn(Cc2ccco2)nn1	no
Cc1nn(-c2ccccc2)c2c1C(c1cccc([N+](=O)[O-])c1)N(c1ccccc1)C(=O)N2 (configuration not stated)	no
Cc1cc(C)cc(NC(=O)N2CCC(N(C)CCC(C)C)CC2)c1	no
CC(C)N1CCCCC(NC(=O)c2ccc3ccccc3c2)C1=O (configuration not stated)	no
COc1ccc(-n2c(COc3ccc(C)cc3)nnc2SCC(=O)Nc2ccc(Oc3ccccc3)cc2)cc1	no
O=C(CSc1nc2ccccc2s1)N=Nc1c(O)[nH]c2ccccc12	no
CC(C)Cc1cc(C(=O)Nc2cc(Br)ccc2O)no1	no
O=C(OC12CCCN(C1)/C(=C/c1cccnc1)C2)C1CCCC1 (configuration not stated)	no
Cc1ccc(OCc2nc3ccccc3n2C)cc1	yes
Cc1ccc(-n2c(SCC(=O)Nc3cccc4ccccc34)nnc2-c2ccco2)cc1	no
CCCN(c1ccc(C)cc1)c1nc(=O)c2cccnc2s1	yes
CS(=O)(=O)N(CC(=O)N/N=C/c1ccccn1)c1ccc(Oc2ccccc2)cc1	no
Cc1ccc(C2=CCN(C)C(=O)N2c2ccc(Cl)cc2)cc1	no
O=C(NCCCc1ccccc1)c1cc(COc2c(F)cccc2F)on1	no
